Values compiled from PubChem BioAssay (NCI).

# test name: NCI Yeast Anticancer Drug Screen. Data for the mec2-1 strain (AID 157)
# condition context: S. cerevisiae mec2-1 strain, at 50.0 µM (retest, dose inferred, filed as 5.0), stronger effect = higher value
The panel holds about 79,000 compounds, 15% with a hit somewhere; the sample as a whole holds those more often.
observation type: growth inhibition (%)
Write the number in % without appending the unit.

Some solved entries appear below for comparison.
CC(=O)N1c2ccccc2Sc2ccc3ccc(C(=O)CCl)cc3c21 ... 98
Cc1ccc(C(O)CCN2CCOCC2)c(C)c1 (stereo unspecified) ... 61
Cc1ccc(C(=O)OCCN2CCOCC2)c([N+](=O)[O-])c1OCc1ccccc1 ... 46
C1=C(c2ccccc2)CCc2ccccc21 ... -1
Cc1cc(Br)c2ccccc2c1N ... 39

Returns the measured growth inhibition for the input molecule. Input: N#CC(NNC(=O)c1ccccc1O)c1c(O)ccc2ccccc12 (stereo unspecified) 51

---

# test name: NCI Yeast Anticancer Drug Screen. Data for the mlh1 rad18 strain (AID 175)
# condition context: S. cerevisiae mlh1 rad18 strain growth inhibition; at 50.0 µM (retest, dose inferred, filed as 5.0)
The panel holds about 79,000 compounds, 15% with a hit somewhere; the sample as a whole holds those more often. Activity calls are given as the source filed them. No stated cut-off is given here; in the data, active means growth inhibition above about 70%; inactive means the rest.
Just give me one of these, please: class 1 = active, class 0 = inactive

O=C(O)c1ccc(C(=O)c2ccccc2C(=O)O)cc1 ... class 0

Record lookup: outcome of this test for O=C1c2ccc3ccccc3c2CCC1[n+]1ccc2ccccc2c1 (stereo not given) ? class 1

Write down the call the test reported for this molecule. Item: `CC(C)/C(Cl)=N/OC(=O)Nc1ccc(OC(F)(F)F)cc1` class 1

Per the assay record, what outcome was assigned to CC1=C(C(=O)OC(C)C)C(c2ccccc2[N+](=O)[O-])C(C(=O)OC(CO[N+](=O)[O-])CO[N+](=O)[O-])=C(C)N1 (stereo not given) ? class 0

Dear colleague, could you share the recorded outcome for `O=C1NCCCNCCCNCCCNC(=O)c2cccc1n2` when you have a moment? class 0

---

# growth inhibition listing for each entry below
# test name: NCI Yeast Anticancer Drug Screen. Data for the bub3 strain (AID 167)
# condition context: S. cerevisiae bub3 mutant strain, at 50.0 µM (retest, dose inferred, filed as 5.0), stronger effect = higher value
About 79,000 compounds went through this panel and 15% of them were active in at least one assay; those are over-represented in the sample as a whole. Activity calls are given as the source filed them. Cut-off read from the data, not from the text of the source: active = growth inhibition above about 70%; inactive = the rest.

Below, 3 compounds whose answers are already recorded.
Cc1c2cc[n+](C)cc2c(COC2OC(CO)C(O)C2O)c2c3ccccc3n(C)c12 (stereo unspecified) ... 14% (inactive)
N#CC(C(=O)C(=O)Nc1ccc(Cl)c(Cl)c1)c1c(Cl)cccc1Cl (stereo unspecified) ... -1% (inactive)
O=C1CCCC1CN1CCOCC1 (stereo unspecified) ... 96% (active)

Note: attention shifts to another entry.
// query growth inhibition value for entry `CCOC(=O)c1nc(SC)sc1NC(=O)c1ccccc1Cl` -14% (inactive)

---

Below, each entry is listed with its recorded growth inhibition.
# test name: NCI Yeast Anticancer Drug Screen. Data for the sgs1 mgt1 strain (AID 161);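 further: 0% = growth of cultures given vehicle only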
# condition context: S. cerevisiae sgs1 mgt1 strain, at 50.0 µM, stronger effect = higher value
Compounds without any hit were thinned out: in the full panel of roughly 79,000, 15% have a hit.
Express the result in % but write the number alone.

Before answering, review these 5 worked examples.
Cc1cc2nc3[nH]c4c(Cl)cc(Cl)cc4c3nc2cc1C ... -7.3
CC1(c2ccccc2)NC(=O)N(CC(=O)N(c2ccccc2)c2ccccc2)C1=O (stereo unspecified) ... 33.5
Cc1ccc2ccc3c(CCN(C)C)cc4c(c3c2c1O)OCO4 ... 91.2
CN1CCN=C1c1ccc(NC(=O)Nc2ccc(NC(=O)Nc3ccc(C4=NCCN4C)cc3)cc2)cc1 ... 90
CCCCCCCCN=C(N)c1ccc(C(=O)OCC2CCCCC2)cc1 ... 99.7

What does the data say about its growth inhibition? Entry: `COc1cc(OC)c(C/C=C/c2ccccc2)cc1O` 16.3

Form field: reported growth inhibition of `COc1cccc(/C=C/C(C)=O)c1OC` 24.5
